# target: ZFP SBS#1236 (synthetic)
# Sequence (chain, as listed by the source): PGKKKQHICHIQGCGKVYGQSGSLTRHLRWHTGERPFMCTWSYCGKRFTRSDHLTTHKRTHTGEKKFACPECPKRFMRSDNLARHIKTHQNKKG
# test_summary: EMSA
# condition_details: tags: MBP fusion
experimental_endpoint: Kd (nM)
Respond with the bare value in nM.

Query: Consider the binder GAGTAGGCA (dsDNA) DNA 1: GAGTAGGCA DNA 2: TGCCTACTC and give its measured Kd.
Response: 0.065

Where these numbers come from: patent US20030068675
